# MEASURED_ON: DNA polymerase gamma catalytic subunit p140, Exo- R964C (Homo sapiens, UniProt P54098 26-1239, D198A;E200A;R964C)
# Sequence (P54098 26-1239 D198A/E200A/R964C): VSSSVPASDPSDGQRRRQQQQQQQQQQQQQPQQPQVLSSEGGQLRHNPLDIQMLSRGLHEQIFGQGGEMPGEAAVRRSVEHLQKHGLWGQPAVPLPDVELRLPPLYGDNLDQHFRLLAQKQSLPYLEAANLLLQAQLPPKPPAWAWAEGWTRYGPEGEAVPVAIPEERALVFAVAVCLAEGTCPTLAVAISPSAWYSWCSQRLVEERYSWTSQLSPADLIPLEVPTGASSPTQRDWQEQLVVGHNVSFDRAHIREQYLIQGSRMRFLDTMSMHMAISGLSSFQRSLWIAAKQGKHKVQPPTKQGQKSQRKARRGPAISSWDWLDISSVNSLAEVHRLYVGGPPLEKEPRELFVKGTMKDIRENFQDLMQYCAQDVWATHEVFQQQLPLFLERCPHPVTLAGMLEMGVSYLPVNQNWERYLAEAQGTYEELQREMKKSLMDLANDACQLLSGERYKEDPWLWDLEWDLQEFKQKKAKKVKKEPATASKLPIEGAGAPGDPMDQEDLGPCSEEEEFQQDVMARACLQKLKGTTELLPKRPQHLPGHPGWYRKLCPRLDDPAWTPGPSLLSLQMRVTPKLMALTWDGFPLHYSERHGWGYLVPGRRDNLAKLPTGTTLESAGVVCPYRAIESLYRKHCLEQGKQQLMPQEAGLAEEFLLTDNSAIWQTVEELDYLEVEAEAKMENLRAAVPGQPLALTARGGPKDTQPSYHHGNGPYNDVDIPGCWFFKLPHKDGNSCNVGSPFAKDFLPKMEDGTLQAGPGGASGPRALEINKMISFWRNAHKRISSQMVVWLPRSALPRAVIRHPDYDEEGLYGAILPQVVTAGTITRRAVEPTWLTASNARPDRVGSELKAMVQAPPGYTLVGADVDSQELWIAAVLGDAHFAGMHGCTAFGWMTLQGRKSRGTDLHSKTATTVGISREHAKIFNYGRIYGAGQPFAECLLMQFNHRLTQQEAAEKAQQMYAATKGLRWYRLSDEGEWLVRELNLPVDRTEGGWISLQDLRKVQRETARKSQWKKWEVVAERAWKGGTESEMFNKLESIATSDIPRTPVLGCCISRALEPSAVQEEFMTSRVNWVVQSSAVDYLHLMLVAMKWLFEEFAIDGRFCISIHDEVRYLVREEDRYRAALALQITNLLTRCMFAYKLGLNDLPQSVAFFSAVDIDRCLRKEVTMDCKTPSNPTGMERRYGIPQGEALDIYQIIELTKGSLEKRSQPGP
# TEST_NAME: EMSA
ATTRIBUTE_MEASURED: Kd (nM)
Answers are plain numbers, in nM.

Tell me its Kd given 38-mer/34-mer primer-template (dsDNA) DNA 1: TTATCGCACCTACGTTCAATATTACAGGCGAACATACT DNA 2: GTATGTTCGCCTGTAATATTGAACGTAGGTGCGA as the entry.
75
